Each record here notes measured dissociation temperature of the oligomer.
target_or_test_system: the molecule itself
assay_remarks: CD thermal transition; far-UV CD at 218 nm, 12.5 µM protein in PBS, 20 to 90 °C at 1 K/min; the lower transition is taken as the disassembly of the oligomer

protein	measured_quantity	val
Hsp26 S90E (natural protein, S. cerevisiae, Hsp26 of S. cerevisiae, phospho-mimetic mutant in pQE60::HSP26; source: E. coli HB101, purified (Q-Sepharose, Superdex200, Resource Q)) MGSFNSPFFDFFDNINNEVDAFNRLLGEGGLRGYAPRRQLANTPAKDSTGKEVARPNNYAGALYDPRDETLDDWFDNDLSLFPSGFGFPREVAVPVDILDHDNNYELKVVVPGVKSKKDIDIEYHQNKNQILVSGEIPSTLNEESKDKVKVKESSSGKFKRVITLPDYPGVDADNIKADYANGVLTLTVPKLKPQKDGKNHVKKIEVSSQESWGN	dissociation temperature of the oligomer	< 40 °C

Problem: Answer with the recorded dissociation temperature of the oligomer for the protein listed here: Hsp26 S144E (natural protein, S. cerevisiae, Hsp26 of S. cerevisiae, phospho-mimetic mutant in pQE60::HSP26; source: E. coli HB101, purified (Q-Sepharose, Superdex200, Resource Q)) MGSFNSPFFDFFDNINNEVDAFNRLLGEGGLRGYAPRRQLANTPAKDSTGKEVARPNNYAGALYDPRDETLDDWFDNDLSLFPSGFGFPRSVAVPVDILDHDNNYELKVVVPGVKSKKDIDIEYHQNKNQILVSGEIPSTLNEEEKDKVKVKESSSGKFKRVITLPDYPGVDADNIKADYANGVLTLTVPKLKPQKDGKNHVKKIEVSSQESWGN
Solution: 35.1 °C

Problem: Answer with the recorded dissociation temperature of the oligomer for the protein listed here: Hsp26 S47E/T48E (natural protein, S. cerevisiae, Hsp26 of S. cerevisiae, phospho-mimetic double mutant in pQE60::HSP26; source: E. coli HB101, purified (Q-Sepharose, Superdex200, Resource Q)) MGSFNSPFFDFFDNINNEVDAFNRLLGEGGLRGYAPRRQLANTPAKDEEGKEVARPNNYAGALYDPRDETLDDWFDNDLSLFPSGFGFPRSVAVPVDILDHDNNYELKVVVPGVKSKKDIDIEYHQNKNQILVSGEIPSTLNEESKDKVKVKESSSGKFKRVITLPDYPGVDADNIKADYANGVLTLTVPKLKPQKDGKNHVKKIEVSSQESWGN
Solution: 36.8 °C

Problem: Answer with the recorded dissociation temperature of the oligomer for the protein listed here: Hsp26 S208E/S211E (natural protein, S. cerevisiae, Hsp26 of S. cerevisiae, phospho-mimetic double mutant in pQE60::HSP26; also called CTR double mutant; source: E. coli HB101, purified (Q-Sepharose, Superdex200, Resource Q)) MGSFNSPFFDFFDNINNEVDAFNRLLGEGGLRGYAPRRQLANTPAKDSTGKEVARPNNYAGALYDPRDETLDDWFDNDLSLFPSGFGFPRSVAVPVDILDHDNNYELKVVVPGVKSKKDIDIEYHQNKNQILVSGEIPSTLNEESKDKVKVKESSSGKFKRVITLPDYPGVDADNIKADYANGVLTLTVPKLKPQKDGKNHVKKIEVSEQEEWGN
Solution: < 40 °C

Problem: Answer with the recorded dissociation temperature of the oligomer for the protein listed here: Hsp26 S208E (natural protein, S. cerevisiae, Hsp26 of S. cerevisiae, phospho-mimetic mutant in pQE60::HSP26; source: E. coli HB101, purified (Q-Sepharose, Superdex200, Resource Q)) MGSFNSPFFDFFDNINNEVDAFNRLLGEGGLRGYAPRRQLANTPAKDSTGKEVARPNNYAGALYDPRDETLDDWFDNDLSLFPSGFGFPRSVAVPVDILDHDNNYELKVVVPGVKSKKDIDIEYHQNKNQILVSGEIPSTLNEESKDKVKVKESSSGKFKRVITLPDYPGVDADNIKADYANGVLTLTVPKLKPQKDGKNHVKKIEVSEQESWGN
Solution: < 40 °C

Problem: Answer with the recorded dissociation temperature of the oligomer for the protein listed here: Hsp26 T42E (natural protein, S. cerevisiae, Hsp26 of S. cerevisiae, phospho-mimetic mutant in pQE60::HSP26; source: E. coli HB101, purified (Q-Sepharose, Superdex200, Resource Q)) MGSFNSPFFDFFDNINNEVDAFNRLLGEGGLRGYAPRRQLANEPAKDSTGKEVARPNNYAGALYDPRDETLDDWFDNDLSLFPSGFGFPRSVAVPVDILDHDNNYELKVVVPGVKSKKDIDIEYHQNKNQILVSGEIPSTLNEESKDKVKVKESSSGKFKRVITLPDYPGVDADNIKADYANGVLTLTVPKLKPQKDGKNHVKKIEVSSQESWGN
Solution: < 40 °C

Where do these numbers come from? They come from paper PMC8602628.
